molecular target: cathepsin B (Bos taurus); construct: purchased Sigma C-6286; experiment: Thiol protease inhibitory activity, cathepsin B (C-6286, Sigma); format: biochemical; conditions: Table 3
readout: IC50 (nM)

compound: CCCC[C@H](NC(=O)[C@H](CC(C)C)NC(=O)COc1cccc2ccccc12)C(=O)CSCc1ccco1 [52 (No. 114)]
unit-label: nM
experimental-result: 820
--
compound: CC(C)C[C@H](NC(=O)OCc1ccccc1)C(=O)N[C@@H](CCC(=O)O)C(=O)CSCc1ccco1 [217 (No. 600)]
unit-label: nM
experimental-result: 2500
--
compound: CC(C)C[C@H](NC(=O)COc1cccc2ccccc12)C(=O)N[C@@H](Cc1ccccc1)C(=O)CSCc1ccco1 [170 (No. 364)]
unit-label: nM
experimental-result: 6500
--
compound: CCCC[C@H](NC(=O)[C@H](CC(C)C)NC(=O)COc1c(Cl)cc(Cl)cc1Cl)C(=O)CSCc1ccco1 [43 (No. 94)]
unit-label: nM
experimental-result: 57
--
compound: CCCC[C@H](NC(=O)[C@H](CC(C)C)NC(=O)COc1ccc(Cl)cc1)C(=O)CSCc1ccco1 [40 (No. 90)]
unit-label: nM
experimental-result: 270
--
compound: CC(C)C[C@H](NC(=O)OCc1ccccc1)C(=O)N[C@@H](CC1CCCCC1)C(=O)CSCc1ccco1 [109 (No. 238)]
unit-label: nM
experimental-result: 1100
--
compound: CCCC[C@H](NC(=O)[C@H](CC(C)C)NC(=O)Cc1ccc(F)cc1)C(=O)CSCc1ccco1 [31 (No. 69)]
unit-label: nM
experimental-result: 550
--
compound: CC(C)C[C@H](NC(=O)OCc1ccccn1)C(=O)N[C@@H](Cc1ccccc1)C(=O)CSCc1ccco1 [150 (No. 313)]
unit-label: nM
experimental-result: 1100
--
compound: CCCC[C@H](NC(=O)[C@H](CC(C)C)NC(=O)COc1ccc(F)cc1)C(=O)CSCc1ccco1 [38 (No. 87)]
unit-label: nM
experimental-result: 620

These data points were gathered from patent US5639783A.
